# testTarget: Sushi domains (SD1/2) protein of the GABAB1a (GB1a) subunit, recombinant
# Sequence (Q9Z0U4 29-158): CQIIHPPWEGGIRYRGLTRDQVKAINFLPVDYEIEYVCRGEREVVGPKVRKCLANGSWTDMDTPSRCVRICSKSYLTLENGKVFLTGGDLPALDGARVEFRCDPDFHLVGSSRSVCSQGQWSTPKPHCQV
# assayNotes: FP competition
pKi: −log10 of the molar value. Non-standard residues stand in square brackets, D forms with d. NMeE = CN[C@@H](CCC(=O)O)C(=O)O; NMeA = CN[C@@H](C)C(=O)O
propertyMeasured: pKi

binder	pKi
Ac-EDDSDVWWGG[NMeA]DTD-NH2 (SMILES CC(=O)N[C@@H](CCC(=O)O)C(=O)N[C@@H](CC(=O)O)C(=O)N[C@@H](CC(=O)O)C(=O)N[C@@H](CO)C(=O)N[C@@H](CC(=O)O)C(=O)N[C@H](C(=O)N[C@@H](Cc1c[nH]c2ccccc12)C(=O)N[C@@H](Cc1c[nH]c2ccccc12)C(=O)NCC(=O)NCC(=O)N(C)[C@@H](C)C(=O)N[C@@H](CC(=O)O)C(=O)N[C@H](C(=O)N[C@@H](CC(=O)O)C(N)=O)[C@@H](C)O)C(C)C) […(N-Me-A)DTD]	6.15
Ac-ET[NMeE]FIAWGPTGDED-NH2 (SMILES CC[C@H](C)[C@H](NC(=O)[C@H](Cc1ccccc1)NC(=O)[C@H](CCC(=O)O)N(C)C(=O)[C@@H](NC(=O)[C@H](CCC(=O)O)NC(C)=O)[C@@H](C)O)C(=O)N[C@@H](C)C(=O)N[C@@H](Cc1c[nH]c2ccccc12)C(=O)NCC(=O)N1CCC[C@H]1C(=O)N[C@H](C(=O)NCC(=O)N[C@@H](CC(=O)O)C(=O)N[C@@H](CCC(=O)O)C(=O)N[C@@H](CC(=O)O)C(N)=O)[C@@H](C)O) [ET(N-Me-E)…]	6.80

(P) Ac-EAEFIAWGPTGDED-NH2 […]
(Q) Ac-E[dD]DSDVWWGGADTD-NH2 [Ed…]
## Task Of P and Q , which carries the smaller reported pKi figure? // caller expects the label of the chosen entry
## Result Q
